test system: U87MG+MMP‐2 siRNA; test: MTS cell proliferation assay; format: cell-based; conditions: Homo sapiens, 24 h
pIC50: −log10 of the molar value.
property-measured: pIC50

[I] CC(=O)O[C@H]1C(=O)[C@@]2(C)[C@H]([C@H](OC(=O)c3ccccc3)[C@]3(O)C[C@H](OC(=O)[C@H](O)[C@@H](NC(=O)c4ccccc4)c4ccccc4)C(C)=C1C3(C)C)[C@]1(OC(C)=O)CO[C@@H]1C[C@@H]2O
[II] Cn1nnc2c(C(N)=O)ncn2c1=O [TMZ, Temozolomide]
Exercise: Between the entries labelled I and II , which has a larger pIC50 value on record? Respond with the label that goes with your answer.
Key: I
